Test system: A549/ATCC NSCLC
Experiment: NCI-60 one-dose screen, 48 h
Conditions: 10 µM unless noted
This is part of a sample that, as a whole, favours compounds with a hit. Of some 83,000 tested, about 20% had one in any assay. Active and inactive are the calls of the source. How the source made its calls: active means growth percent below 10; inactive means the rest.
Choose the fitting class; nothing outside active, inactive is accepted.

Worked cases, answers included:
{"Compound": "COc1ccc(C(=O)OC2C(OC3C(O)COC(O[C@H]4C[C@H]5[C@@H]6CC=C7C[C@@H](O)CC[C@]7(C)[C@H]6CC[C@]5(C)[C@H]4[C@H](C)C(=O)CCC(C)C)C3OC(=O)C(C)C)OCC(O)C2O)cc1 (some centres undefined)", "Tgt": "A549/ATCC NSCLC", "Assigned Class": "inactive"}
{"Compound": "COc1cc(C2CC(c3ccc(Cl)cc3)=NN2C(C)=O)ccc1Oc1ccnc2cc(Cl)ccc12 (centres undefined)", "Tgt": "A549/ATCC NSCLC", "Assigned Class": "inactive"}
{"Compound": "C=C1C[C@@]2(C)C(CC[C@]3(C)C2CC=C2C4CC(C)(C)C[C@@H](OC(=O)/C(C)=C\\C)[C@]4(C(=O)O)CC[C@]23C)C(C)(C)C1=O (some centres undefined)", "Tgt": "A549/ATCC NSCLC", "Assigned Class": "active"}
{"Compound": "CN1C(=O)N(C)C2C1NN=c1s/c(=C\\c3ccc(C(F)(F)F)cc3)c(=O)n12 (centres undefined)", "Tgt": "A549/ATCC NSCLC", "Assigned Class": "inactive"}
{"Compound": "CC(=O)Oc1ccccc1C(=O)Nc1ncc([N+](=O)[O-])s1", "Tgt": "A549/ATCC NSCLC", "Assigned Class": "inactive"}

Ask: GET /call?item= "COc1cc(-c2nc(-c3ccc(-c4nc5ccc(F)cc5[nH]4)cc3)no2)cc(OC)c1OC" returns the recorded outcome of this test.
Result: inactive

Ask: Please let me know the test result on file for "CC(C)CCSc1nc(-c2ccc(F)cc2)c(C#N)c(N2CCN(C)CC2)n1" .
Result: inactive

Ask: What did the test return for "CC(C)c1cccc(C#N)c1" ?
Result: inactive

Ask: What did the test return for "CCN(CC)CCNC(=O)n1cc(-c2ccncc2)c(-c2ccc(Cl)c(OC)c2)n1" ?
Result: inactive

---

Test system: 786-0 renal
Assay: NCI-60 one-dose screen, 48 h (100 = growth as untreated, 0 = no growth, -100 = all killed)
Conditions: 10 µM unless noted
Compounds without any hit were thinned out: in the full panel of roughly 83,000, 20% have a hit.
This section presents compounds with their documented growth values.
Field: numeric (%). Do not append units.

Use these answered entries as a reference point.
{"Compound": "N#Cc1ccc(-c2ccc(-c3cccs3)o2)cc1F", "Tgt": "786-0 renal", "growth [%]": 67.2}
{"Compound": "COc1cc2c(=O)n(CCCN(C)C)c3c4cc[nH]c4ncc3c2cc1OC", "Tgt": "786-0 renal", "growth [%]": 33.7}
{"Compound": "COc1cccc(NC(=O)OC(C)C)c1", "Tgt": "786-0 renal", "growth [%]": 104}

Ask: Given the compound "COc1cc(/C=C2\CN(C(=O)OC(C)(C)C)C/C(=C\c3ccc(O)c(OC)c3)C2=O)ccc1O" , what is its reported growth?
Result: 93.3

Ask: Fill blank: measured growth of the compound NC(=S)N1N=C(c2ccc(Cl)cc2)CC1c1cc2ccccc2[nH]c1=O (stereo not given) is ____.
Result: 98

Ask: Please look up its growth: "C=C1C(=O)O[C@H]2[C@H]1CC/C(COC(=O)NCc1[nH]nc3ccccc13)=C\CC[C@@]1(C)O[C@@H]21"
Result: -25.4

Ask: // growth lookup, key: "O=C(Nc1cccc(N=Cc2c(O)ccc3ccccc23)c1)c1ccccc1"
Result: 93.4

Ask: Entry under review: CC(=O)N1N=C(C2C(=O)N(C)C(=O)N(C)C2=O)CC1c1ccccc1C(=O)O (stereo not given) . Reported growth?
Result: 98.2

Ask: Give the measured growth of "CC(C)(C)OC(=O)N1CCCN(CCNc2nccc(-c3c(-c4cccc(O)c4)nc4sccn34)n2)S1(=O)=O" .
Result: 87.3

Ask: Which growth is listed for CCOC(=O)C(Cc1ccccc1)n1c(O)c(/C=N/c2ncc(Cc3ccc(Cl)cc3Cl)s2)sc1=S (stereo not given) ?
Result: 17.9

Origin of measurements: PubChem BioAssay (NCI)
